Entry source: patent US20230405133A1

Molecular target: T1, Human VEGF 165 (human, UniProt P15692-4 27-191)
T1 construct: Loaded on the BLI probe as the ligand; also called BLI ligand Human VEGF 165 (Avi tag, R&D Systems AVI-293-050); not shown: Avi tag
T1 sequence (P15692 other isoform, or with tags, fused parts or gaps limits assumed): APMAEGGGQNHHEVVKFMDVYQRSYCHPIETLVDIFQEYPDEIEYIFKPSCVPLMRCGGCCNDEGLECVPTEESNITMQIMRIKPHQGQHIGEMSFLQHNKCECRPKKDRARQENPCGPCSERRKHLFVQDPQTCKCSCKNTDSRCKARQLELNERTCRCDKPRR
Assay: BLI; KD after 4 days at 37 °C against KD at t = 0
Use 3000 fold as the dividing line for Change in KD to t = 0, with the line itself on the Condition met side and lower values as Condition not met.

Worked cases, answers included:
binder: Conjugate 17 (anti-VEGF VHH SEQ ID NO: 91 on hyaluronic acid, intermediate 1-7) (VHH, peptide bound through the organic linker MP2H to hyaluronic acid (830 kDa); site of attachment not stated, Multivalent peptide-hyaluronic acid conjugate (MVP); peptide valency 90; Method 1 intermediate; also called BI VHH anti-VEGF MVP) VHH: DVQLVESGGGLVQPGGSLRLSCAASGRTFSSYSMGWFRQAPGKEREFVVAISKGGYKYDAVSLEGRFTISRDNAKNTVYLQINSLRPEDTAVYYCASSRAYGSSRLRLADTYEYWGQGTLVTVSS
group: Condition not met

binder: Conjugate 22 (anti-VEGF VHH SEQ ID NO: 91 with aH linker SEQ ID NO: 21 on hyaluronic acid, intermediate 1-10) (VHH, C-terminal Cys of the peptide linker bound by its thiol to the maleimide of the organic linker MP2H on hyaluronic acid (830 kDa), Multivalent peptide-hyaluronic acid conjugate (MVP); peptide valency 18; Method 1 intermediate; also called BI VHH anti-VEGF MVP) VHH: DVQLVESGGGLVQPGGSLRLSCAASGRTFSSYSMGWFRQAPGKEREFVVAISKGGYKYDAVSLEGRFTISRDNAKNTVYLQINSLRPEDTAVYYCASSRAYGSSRLRLADTYEYWGQGTLVTVSS
group: Condition met

QUERY: Has Conjugate 20 (anti-VEGF VHH SEQ ID NO: 91 on hyaluronic acid, intermediate 2-8) (VHH, peptide bound through the organic linker MP2H to hyaluronic acid (830 kDa); site of attachment not stated, Multivalent peptide-hyaluronic acid conjugate (MVP); peptide valency 91; Method 2 intermediate; also called BI VHH anti-VEGF MVP) VHH: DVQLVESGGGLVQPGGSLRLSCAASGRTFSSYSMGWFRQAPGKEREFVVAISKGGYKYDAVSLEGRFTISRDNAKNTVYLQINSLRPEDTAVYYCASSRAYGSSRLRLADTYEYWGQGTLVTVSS a recorded Change in KD to t = 0 greater than or equal to 3000 fold?
RESULT: Condition not met

QUERY: Has Conjugate 16 (anti-VEGF VHH SEQ ID NO: 91 with aH linker SEQ ID NO: 21 on hyaluronic acid, intermediate 2-6) (VHH, C-terminal Cys of the peptide linker bound by its thiol to the maleimide of the organic linker MP2H on hyaluronic acid (830 kDa), Multivalent peptide-hyaluronic acid conjugate (MVP); peptide valency 101; Method 2 intermediate; also called BI VHH anti-VEGF MVP) VHH: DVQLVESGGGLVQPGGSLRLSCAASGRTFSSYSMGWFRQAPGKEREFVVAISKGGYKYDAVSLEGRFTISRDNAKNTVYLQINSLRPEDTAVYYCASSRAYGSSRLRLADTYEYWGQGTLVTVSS a recorded Change in KD to t = 0 greater than or equal to 3000 fold?
RESULT: Condition not met

QUERY: Has Conjugate 18 (anti-VEGF VHH SEQ ID NO: 91 on hyaluronic acid, intermediate 1-7) (VHH, peptide bound through the organic linker MP2H to hyaluronic acid (830 kDa); site of attachment not stated, Multivalent peptide-hyaluronic acid conjugate (MVP); peptide valency 88; Method 1 intermediate; also called BI VHH anti-VEGF MVP) VHH: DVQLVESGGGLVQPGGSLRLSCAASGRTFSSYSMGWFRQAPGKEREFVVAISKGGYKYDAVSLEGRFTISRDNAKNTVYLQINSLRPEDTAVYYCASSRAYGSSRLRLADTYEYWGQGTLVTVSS a recorded Change in KD to t = 0 greater than or equal to 3000 fold?
RESULT: Condition not met

QUERY: Has Conjugate 21 (anti-VEGF VHH SEQ ID NO: 91 with aH linker SEQ ID NO: 21 on hyaluronic acid, intermediate 1-9) (VHH, C-terminal Cys of the peptide linker bound by its thiol to the maleimide of the organic linker MP2H on hyaluronic acid (830 kDa), Multivalent peptide-hyaluronic acid conjugate (MVP); peptide valency 51; Method 1 intermediate; also called BI VHH anti-VEGF MVP) VHH: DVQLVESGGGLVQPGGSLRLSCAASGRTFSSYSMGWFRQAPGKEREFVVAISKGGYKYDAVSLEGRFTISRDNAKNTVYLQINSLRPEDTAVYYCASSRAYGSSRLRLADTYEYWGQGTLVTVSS a recorded Change in KD to t = 0 greater than or equal to 3000 fold?
RESULT: Condition met

QUERY: Has Conjugate 23 (anti-VEGF VHH SEQ ID NO: 91 with aH linker SEQ ID NO: 21 on hyaluronic acid, intermediate 1-11) (VHH, C-terminal Cys of the peptide linker bound by its thiol to the maleimide of the organic linker MP2H on hyaluronic acid (830 kDa), Multivalent peptide-hyaluronic acid conjugate (MVP); peptide valency 33; Method 1 intermediate; also called BI VHH anti-VEGF MVP) VHH: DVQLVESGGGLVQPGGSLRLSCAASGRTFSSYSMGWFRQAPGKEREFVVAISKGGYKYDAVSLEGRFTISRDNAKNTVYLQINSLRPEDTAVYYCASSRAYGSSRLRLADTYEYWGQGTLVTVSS a recorded Change in KD to t = 0 greater than or equal to 3000 fold?
RESULT: Condition met

QUERY: Has Conjugate 19 (anti-VEGF VHH SEQ ID NO: 91 on hyaluronic acid, intermediate 2-6) (VHH, peptide bound through the organic linker MP2H to hyaluronic acid (830 kDa); site of attachment not stated, Multivalent peptide-hyaluronic acid conjugate (MVP); peptide valency 108; Method 2 intermediate; also called BI VHH anti-VEGF MVP) VHH: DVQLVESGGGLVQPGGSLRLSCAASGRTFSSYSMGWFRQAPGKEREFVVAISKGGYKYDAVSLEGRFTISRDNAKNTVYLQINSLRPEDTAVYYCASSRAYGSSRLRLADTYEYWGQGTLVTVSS a recorded Change in KD to t = 0 greater than or equal to 3000 fold?
RESULT: Condition not met
